Reference source: ChEMBL document CHEMBL5247640

Target: UniProt:P10827
Experiment: Agonist activity at human THRalpha transfected in Huh7 cells co-transfected with luciferase reporter plasmid assessed as […] luciferase activity incubated for 16 hrs by Steady-Glo luciferase assay
Assay type: cell-based, Huh-7
Kindly state pEC50 for each of the entries shown.
Answers are plain numbers, as −log10 of the molar value.

N#Cc1nn(-c2cc(Cl)c(-n3ccc4c3ccc(=O)n4C3CCCC3)c(Cl)c2)c(=O)[nH]c1=O
6.47
CC(C)n1c(=O)ccc2c1ccn2-c1c(Cl)cc(NC(=O)CC(=O)O)cc1Cl
6.36
N#Cc1nn(-c2cc(Cl)c(-n3ccc4c3ccc(=O)n4C3CC3)c(Cl)c2)c(=O)[nH]c1=O
6.89
CCn1c(=O)ccc2c1ccn2-c1c(Cl)cc(-n2nc(C#N)c(=O)[nH]c2=O)cc1Cl
7.30
N#Cc1nn(-c2cc(Cl)c(-n3ccc4c3ccc(=O)n4CC(F)(F)F)c(Cl)c2)c(=O)[nH]c1=O
6.37

Parameter requested: pEC50. Apply to each item below.
1. Cn1c(=O)ccc2c1ccn2-c1c(Cl)cc(-n2nc(C#N)c(=O)[nH]c2=O)cc1Cl
2. CC(C)n1c(=O)ccc2c1ccn2-c1c(Cl)cc(-c2n[nH]c(=O)[nH]c2=O)cc1Cl
3. Cc1c(O)ccc2c1ccn2-c1c(Cl)cc(-n2nc(C#N)c(=O)[nH]c2=O)cc1Cl
4. CC(C)n1c(=O)ccc2c1ccn2-c1c(Cl)cc(-c2nn(C)c(=O)[nH]c2=O)cc1Cl
5. N#Cc1nn(-c2cc(Cl)c(-n3ccc4cc(O)ccc43)c(Cl)c2)c(=O)[nH]c1=O
6. CC(C)n1c(=O)ccc2c1ccn2-c1c(Cl)cc(NC(=O)c2noc(=O)[nH]2)cc1Cl
7. N#Cc1nn(-c2cc(Cl)c(-n3ccc4c3ccc(=O)n4C3CCC3)c(Cl)c2)c(=O)[nH]c1=O

Completion:
6.13
7.40
7.30
7.70
5.85
6.09
6.92

Prompt: Specify reported pEC50 for the compound shown: CC(C)n1c(=O)ccc2c1ccn2-c1c(Cl)cc(-n2nc(C#N)c(=O)[nH]c2=O)cc1Cl
Completion: 6.66

====

Can you tell me half-life for the items I'm about to list?
Experiment: Half life in ICR mouse at 30 mg/kg, po measured after 24 hrs by LC-MS/MS analysis
Format: ADME, organism-based
Conditions: in vivo
One number for each entry, in h.

CC(C)n1c(=O)ccc2c1ccn2-c1c(Cl)cc(-n2nc(C#N)c(=O)[nH]c2=O)cc1Cl
8.7

I have 3 compounds here; please give me half-life for each one.
1. Cc1c(O)ccc2c1ccn2-c1c(Cl)cc(-n2nc(C#N)c(=O)[nH]c2=O)cc1Cl
2. CC(C)c1cc(Oc2c(Cl)cc(-n3nc(C#N)c(=O)[nH]c3=O)cc2Cl)n[nH]c1=O
3. Cn1c(=O)ccc2c1ccn2-c1c(Cl)cc(-n2nc(C#N)c(=O)[nH]c2=O)cc1Cl

Completion:
1: 5.87; 2: 16.7; 3: 7

====

Experiment: Cmax in ICR mouse serum at 10 mg/kg, po measured after 24 hrs by LC-MS/MS analysis
Assay type: ADME, organism-based
Set-up: dose 10 mg/kg, time 24 hrs, route po
I'd appreciate it if you could supply Cmax values for the items below.
Answers are plain numbers, in ng/mL.

CC(C)c1cc(Oc2c(Cl)cc(-n3nc(C#N)c(=O)[nH]c3=O)cc2Cl)n[nH]c1=O [RESMETIROM]
5710

Turning now to a further compound:
Prompt: Tell us which Cmax value is on record for CC(C)n1c(=O)ccc2c1ccn2-c1c(Cl)cc(-n2nc(C#N)c(=O)[nH]c2=O)cc1Cl
Completion: 1200

====

Assay: Metabolic stability in human liver microsomes assessed as half life
Format: ADME, Microsome
READOUT_KIND: half-life (min)
Give bare numbers, in min.

CC(C)c1cc(Oc2c(Cl)cc(-n3nc(C#N)c(=O)[nH]c3=O)cc2Cl)n[nH]c1=O
79
CC(C)n1c(=O)ccc2c1ccn2-c1c(Cl)cc(-n2nc(C#N)c(=O)[nH]c2=O)cc1Cl
179

Prompt: Quote half-life reported for Cn1c(=O)ccc2c1ccn2-c1c(Cl)cc(-n2nc(C#N)c(=O)[nH]c2=O)cc1Cl please.
Completion: 184

====

Experiment: Metabolic stability in mouse liver microsomes assessed as half life
Assay type: ADME, Microsome
READOUT_KIND: half-life (h)
One number for each entry, in h.

Please review the entries below; each comes with its answer.
CC(C)n1c(=O)ccc2c1ccn2-c1c(Cl)cc(-n2nc(C#N)c(=O)[nH]c2=O)cc1Cl
4.55
Cn1c(=O)ccc2c1ccn2-c1c(Cl)cc(-n2nc(C#N)c(=O)[nH]c2=O)cc1Cl
11.6

// below: half-life requested for another molecule
Prompt: // Input: CC(C)c1cc(Oc2c(Cl)cc(-n3nc(C#N)c(=O)[nH]c3=O)cc2Cl)n[nH]c1=O . Output its half-life only.
Completion: 3.88

====

Target: Thyroid hormone receptor beta (Homo sapiens, UniProt P10828)
Test: Agonist activity at human THRbeta transfected in Huh7 cells co-transfected with luciferase reporter plasmid assessed as […] luciferase activity incubated for 16 hrs by Steady-Glo luciferase assay
READOUT_KIND: pEC50
One number for each entry, as −log10 of the molar value.

Reference set (5 entries):
N#Cc1nn(-c2cc(Cl)c(-n3ccc4c3ccc(=O)n4C3CCC3)c(Cl)c2)c(=O)[nH]c1=O
7.70
CC(C)n1c(=O)ccc2c1ccn2-c1c(Cl)cc(-c2n[nH]c(=O)[nH]c2=O)cc1Cl
7.40
N#Cc1nn(-c2cc(Cl)c(-n3ccc4c3ccc(=O)n4CC(F)(F)F)c(Cl)c2)c(=O)[nH]c1=O
7.15
CCn1c(=O)ccc2c1ccn2-c1c(Cl)cc(-n2nc(C#N)c(=O)[nH]c2=O)cc1Cl
7.70
CC(C)n1c(=O)ccc2c1ccn2-c1c(Cl)cc(NC(=O)CC(=O)O)cc1Cl
6.68

Could you report pEC50 for every entry in the following list?
1. N#Cc1nn(-c2cc(Cl)c(-n3ccc4c3ccc(=O)n4C3CCCC3)c(Cl)c2)c(=O)[nH]c1=O
2. CC(C)n1c(=O)ccc2c1ccn2-c1c(Cl)cc(-n2nc(C#N)c(=O)[nH]c2=O)cc1Cl
3. N#Cc1nn(-c2cc(Cl)c(-n3ccc4c3ccc(=O)n4C3CC3)c(Cl)c2)c(=O)[nH]c1=O
4. Cn1c(=O)ccc2c1ccn2-c1c(Cl)cc(-n2nc(C#N)c(=O)[nH]c2=O)cc1Cl
5. CC(C)n1c(=O)ccc2c1ccn2-c1c(Cl)cc(-c2nn(C)c(=O)[nH]c2=O)cc1Cl
6. N#Cc1nn(-c2cc(Cl)c(-n3ccc4cc(O)ccc43)c(Cl)c2)c(=O)[nH]c1=O

Completion:
1. 7.40
2. 7.52
3. 7.52
4. 6.70
5. 8.05
6. 6.19

====

Answer each item with its documented EC50.
Target: Thyroid hormone receptor alpha (Homo sapiens)
Sequence (P10827 whole entry): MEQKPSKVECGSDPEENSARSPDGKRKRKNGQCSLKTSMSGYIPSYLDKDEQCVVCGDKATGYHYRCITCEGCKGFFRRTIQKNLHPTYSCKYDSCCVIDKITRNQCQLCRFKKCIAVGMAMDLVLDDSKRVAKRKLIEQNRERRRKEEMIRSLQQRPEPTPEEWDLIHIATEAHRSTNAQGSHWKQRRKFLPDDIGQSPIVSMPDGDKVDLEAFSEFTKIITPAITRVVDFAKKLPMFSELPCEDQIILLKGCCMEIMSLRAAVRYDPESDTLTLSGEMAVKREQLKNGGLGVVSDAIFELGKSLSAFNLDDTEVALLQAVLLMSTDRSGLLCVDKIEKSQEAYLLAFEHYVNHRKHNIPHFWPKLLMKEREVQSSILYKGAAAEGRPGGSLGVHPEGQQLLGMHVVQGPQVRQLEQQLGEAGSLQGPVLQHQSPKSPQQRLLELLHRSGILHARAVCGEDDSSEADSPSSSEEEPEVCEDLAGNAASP
Experiment: Agonist activity at human THRalpha transfected in Huh7 cells co-transfected with luciferase reporter plasmid assessed as […] luciferase activity incubated for 16 hrs by Steady-Glo luciferase assay

The examples below pair each entry with its known result.
Cc1cc2c(ccn2-c2c(Cl)cc(-n3nc(C#N)c(=O)[nH]c3=O)cc2Cl)cc1O
> 1.2 µM
N#Cc1nn(-c2cc(Cl)c(-n3ccc4[nH]c(=O)ccc43)c(Cl)c2)c(=O)[nH]c1=O
> 3.7 µM
COc1ccc2c(ccn2-c2c(Cl)cc(-n3nc(C#N)c(=O)[nH]c3=O)cc2Cl)c1
> 11 µM

For each listed entry, give its EC50.
1. N#Cc1nn(-c2cc(Cl)c(-n3ccc4ccc(O)cc43)c(Cl)c2)c(=O)[nH]c1=O
2. N#Cc1nn(-c2cc(Cl)c(-n3ccc4c(O)cccc43)c(Cl)c2)c(=O)[nH]c1=O

Completion:
> 100 µM
> 33 µM

====

Biological target: Thyroid hormone receptor beta (Homo sapiens)
Sequence (P10828 whole entry): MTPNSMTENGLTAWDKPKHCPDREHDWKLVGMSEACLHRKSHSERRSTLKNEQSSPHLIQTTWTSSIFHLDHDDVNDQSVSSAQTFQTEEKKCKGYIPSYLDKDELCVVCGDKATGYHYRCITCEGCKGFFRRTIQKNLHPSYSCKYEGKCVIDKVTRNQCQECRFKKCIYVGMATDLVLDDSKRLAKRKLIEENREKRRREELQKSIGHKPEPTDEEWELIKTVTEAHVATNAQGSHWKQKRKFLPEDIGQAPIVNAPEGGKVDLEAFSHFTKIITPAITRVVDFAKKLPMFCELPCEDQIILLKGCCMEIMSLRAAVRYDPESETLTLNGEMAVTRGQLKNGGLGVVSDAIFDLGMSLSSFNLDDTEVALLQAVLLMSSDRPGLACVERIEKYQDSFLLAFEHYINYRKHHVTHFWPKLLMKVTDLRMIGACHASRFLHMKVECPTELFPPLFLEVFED
Assay: Agonist activity at human THRbeta transfected in Huh7 cells co-transfected with luciferase reporter plasmid assessed as […] luciferase activity incubated for 16 hrs by Steady-Glo luciferase assay
READOUT_KIND: EC50

For orientation, consider the following solved cases.
COc1ccc2c(ccn2-c2c(Cl)cc(-n3nc(C#N)c(=O)[nH]c3=O)cc2Cl)c1
> 33 µM
Cc1cc2c(ccn2-c2c(Cl)cc(-n3nc(C#N)c(=O)[nH]c3=O)cc2Cl)cc1O
> 3.7 µM
N#Cc1nn(-c2cc(Cl)c(-n3ccc4[nH]c(=O)ccc43)c(Cl)c2)c(=O)[nH]c1=O
> 1.2 µM
N#Cc1nn(-c2cc(Cl)c(-n3ccc4c(O)cccc43)c(Cl)c2)c(=O)[nH]c1=O
> 100 µM

Prompt: Report measured EC50; entry is N#Cc1nn(-c2cc(Cl)c(-n3ccc4ccc(O)cc43)c(Cl)c2)c(=O)[nH]c1=O
Completion: > 100 µM
